tested on: HLA-A*24; experiment: MHC binding assay (UV-ligand exchange, β2m ELISA); set-up: species or system human
parameterMeasured: Peptide exchange (peptide exchange yield, MHC class I binding score)

Example entries and their recorded answers appear below.
In [3]: df
Out[3]:
                                  substance             testvalue
0  35 (KYLEESVWL; listed as Homo sapiens) [compound 35]  “++++” (>75% = ++++)
1  66 (IYFRDSSFL; listed as Homo sapiens) [compound 66]  “++++” (>75% = ++++)
2  11 (YYSKSVGFMQW; listed as Homo sapiens) [compound 11]  “++++” (>75% = ++++)
3  78 (TWFPKTPMLF; listed as Homo sapiens) [compound 78]  “++++” (>75% = ++++)
4  52 (KYMKIFHKF; listed as Homo sapiens) [compound 52]  “++++” (>75% = ++++)
5  10 (VWSDVTPLNF; listed as Homo sapiens) [compound 10]  “++++” (>75% = ++++)
6  61 (NYAENILTL; listed as Homo sapiens) [compound 61]     “+++” (>50 = +++)
7  382 (IYHSHHPTL; listed as Homo sapiens) [compound 382]     “+++” (>50 = +++)
8  21 (SYEVRSTF; listed as Homo sapiens) [compound 21]     “+++” (>50 = +++)
9  383 (RYKQDVERF; listed as Homo sapiens) [compound 383]     “+++” (>50 = +++)

Briefly, Peptide exchange (peptide exchange yield, MHC class I binding score) measured for 384 (KYVKVFDKF; listed as Homo sapiens) [compound 384] : “++++” (>75% = ++++)

The recorded Peptide exchange (peptide exchange yield, MHC class I binding score) for entry 70 (PYTNYTFDF; listed as Homo sapiens) [compound 70] equals “++++” (>75% = ++++)

The substance identified as 28 (YYSIISHTL; listed as Homo sapiens) [compound 28] registered its Peptide exchange (peptide exchange yield, MHC class I binding score) at “++++” (>75% = ++++)

Lab book: Peptide exchange (peptide exchange yield, MHC class I binding score) of 45 (KYFVPPQLF; listed as Homo sapiens) [compound 45] noted as “++++” (>75% = ++++)

###

system: HLA-A*01; assay: MHC binding assay (UV-ligand exchange, β2m ELISA); design: species or system human
parameterMeasured: Peptide exchange (peptide exchange yield, MHC class I binding score)

Some solved entries appear below for comparison.
>>> df
                                  substance             testvalue
0  419 (LSELKPMSY; listed as Homo sapiens) [compound 419]  “++++” (>75% = ++++)
1  186 (TTDIIEKY; listed as Homo sapiens) [compound 186]     “+++” (>50 = +++)
2  441 (TLDSALNAASYY; listed as Homo sapiens) [compound 441]  “++++” (>75% = ++++)
3  190 (VTDGINPLIDRY; listed as Homo sapiens) [compound 190]     “+++” (>50 = +++)

Per the record, 161 (LVDDGTHGQY; listed as Homo sapiens) [compound 161] has Peptide exchange (peptide exchange yield, MHC class I binding score) of “+++” (>50 = +++)

Record 445 (VLDQGKITEY; listed as Homo sapiens) [compound 445] , field Peptide exchange (peptide exchange yield, MHC class I binding score): “+++” (>50 = +++)

Record 449 (YLDRGTGNVSFY; listed as Homo sapiens) [compound 449] . Reported Peptide exchange (peptide exchange yield, MHC class I binding score): “++++” (>75% = ++++)

###

target: HLA-A*02 (Homo sapiens, UniProt P04439, D140Y/D185E/D98H/E176V/E277Q/G131W/G231S/I119V/I121R/I166T/I218V/N151K/N90K/P208A/P217A/Q86G/Q94H/R138H/R169H); assay: MHC binding assay (UV-ligand exchange, β2m ELISA)
parameterMeasured: Peptide exchange (peptide exchange yield, MHC class I binding score)

// worked examples, Peptide exchange (peptide exchange yield, MHC class I binding score) included
In [3]: df
Out[3]:
                                  substance             testvalue
0  104 (GMLDIFWGV; listed as Homo sapiens) [compound 104]  “++++” (>75% = ++++)
1  393 (ILLPYLQTL; listed as Homo sapiens) [compound 393]  “++++” (>75% = ++++)
2  124 (SVASVLLYL; listed as Homo sapiens) [compound 124]  “++++” (>75% = ++++)
3  121 (ALVDTLTGI; listed as Homo sapiens) [compound 121]  “++++” (>75% = ++++)
4  89 (ILSTTMVTV; listed as Homo sapiens) [compound 89]  “++++” (>75% = ++++)
5  114 (ILDERQVLL; listed as Homo sapiens) [compound 114]  “++++” (>75% = ++++)
6  88 (VQMVITEAQKV; listed as Homo sapiens) [compound 88]  “++++” (>75% = ++++)
7  98 (LQSSGLTLLL; listed as Homo sapiens) [compound 98]  “++++” (>75% = ++++)
8  93 (TLQEKILQV; listed as Homo sapiens) [compound 93]  “++++” (>75% = ++++)
9  128 (FLGTTPTL; listed as Homo sapiens) [compound 128]  “++++” (>75% = ++++)

Here's the next entry for you.
Summary for this substance, 112 (SVSDGIHSV; listed as Homo sapiens) [compound 112] : Peptide exchange (peptide exchange yield, MHC class I binding score) is “++++” (>75% = ++++)

###

molecular target: HLA-B*07 (Homo sapiens); test: MHC binding assay (UV-ligand exchange, β2m ELISA)
parameterMeasured: Peptide exchange (peptide exchange yield, MHC class I binding score)

In the examples that follow, each entry is paired with its recorded Peptide exchange (peptide exchange yield, MHC class I binding score).
>>> print(df.to_string())
                                  substance             testvalue
0  467 (KPFSSFTSM; listed as Homo sapiens) [compound 467]  “++++” (>75% = ++++)
1  295 (KPEGTRIAV; listed as Homo sapiens) [compound 295]  “++++” (>75% = ++++)
2  290 (APYRPPDISL; listed as Homo sapiens) [compound 290]  “++++” (>75% = ++++)
3  252 (SPDIRNTTV; listed as Homo sapiens) [compound 252]  “++++” (>75% = ++++)
4  292 (SPQRLRGLLL; listed as Homo sapiens) [compound 292]     “+++” (>50 = +++)

The reported value for 291 (SPQRLRGLL; listed as Homo sapiens) [compound 291] in terms of Peptide exchange (peptide exchange yield, MHC class I binding score) is “++++” (>75% = ++++)

So for 263 (HPAPYGDLL; listed as Homo sapiens) [compound 263] , the logged Peptide exchange (peptide exchange yield, MHC class I binding score) turned out to be “++++” (>75% = ++++)

Reported Peptide exchange (peptide exchange yield, MHC class I binding score) for 244 (FPYVRDFVM; listed as Homo sapiens) [compound 244] was “++++” (>75% = ++++)

Value of measured Peptide exchange (peptide exchange yield, MHC class I binding score) for the entry 469 (YPENGVVQM; listed as Homo sapiens) [compound 469] : “++” (>20% = ++)

Peptide exchange (peptide exchange yield, MHC class I binding score) reported for this substance 273 (MPLLWLRGF; listed as Homo sapiens) [compound 273] : “++” (>20% = ++)

Record 464 (YPRPGTPAA; listed as Homo sapiens) [compound 464] . Reported Peptide exchange (peptide exchange yield, MHC class I binding score): “++++” (>75% = ++++)

Peptide exchange (peptide exchange yield, MHC class I binding score) measured on 229 (VPLPAGGGTV; listed as Homo sapiens) [compound 229] = “+++” (>50 = +++)

Value of measured Peptide exchange (peptide exchange yield, MHC class I binding score) for the entry 232 (RPRALRDLQLL; listed as Homo sapiens) [compound 232] : “++++” (>75% = ++++)

The recorded Peptide exchange (peptide exchange yield, MHC class I binding score) for entry 474 (LPRLLPAL; listed as Homo sapiens) [compound 474] equals “++++” (>75% = ++++)

Documented Peptide exchange (peptide exchange yield, MHC class I binding score) of 272 (MPLPWSLALPL; listed as Homo sapiens) [compound 272] : “++++” (>75% = ++++)

Notebook: 463 (TPKAGPTL; listed as Homo sapiens) [compound 463] , Peptide exchange (peptide exchange yield, MHC class I binding score) read as “++++” (>75% = ++++)
